The following molecules are listed with their measured log10 IC50 values.
Experiment Description: Antiproliferative activity against human ECV304 cells after 48 hrs by MTT assay
Type: cell-based
Test Context: ECV-304, 48 h
Test Readout: log10 IC50 (log10 of the value in µM)

{"Molecule": "COc1ccc2c(=O)oc3c(OC)cc(CCN(C)C)c4c(=O)oc1c2c34 [TASPINE]", "Observed": 1.35}
{"Molecule": "CNC(=O)c1ccc(OC)c(O)c1-c1c(C(=O)NC)ccc(OC)c1OCCN1CCOCC1", "Observed": 3.13}
{"Molecule": "CNC(=O)c1ccc(OC)c(O)c1-c1c(C(=O)NC)ccc(OC)c1OCC(=O)Nc1ccc(F)c(Cl)c1", "Observed": 1.86}
{"Molecule": "CNC(=O)c1ccc(OC)c(OCCN(C)C)c1-c1c(C(=O)NC)ccc(OC)c1OCC(=O)Nc1ccc(F)c(Cl)c1", "Observed": 1.76}
{"Molecule": "COC(=O)c1cc(OC(=O)c2ccc(OC)c(O)c2)c(OC)cc1CCN1CCOCC1", "Observed": 0.43}
{"Molecule": "COC(=O)c1cc(OC(=O)c2ccc(OC)c(O)c2)c(OC)cc1CCNc1ccc(F)c(Cl)c1", "Observed": 1.79}
{"Molecule": "CNC(=O)c1ccc(OC)c(O)c1-c1c(C(=O)NC)ccc(OC)c1O", "Observed": 2.05}
